Where these numbers come from: patent US20190233493A1

Biological target: T1, RXFP1 receptor (UniProt Q9HBX9 1-757, limits assumed)
T1 sequence (looked up): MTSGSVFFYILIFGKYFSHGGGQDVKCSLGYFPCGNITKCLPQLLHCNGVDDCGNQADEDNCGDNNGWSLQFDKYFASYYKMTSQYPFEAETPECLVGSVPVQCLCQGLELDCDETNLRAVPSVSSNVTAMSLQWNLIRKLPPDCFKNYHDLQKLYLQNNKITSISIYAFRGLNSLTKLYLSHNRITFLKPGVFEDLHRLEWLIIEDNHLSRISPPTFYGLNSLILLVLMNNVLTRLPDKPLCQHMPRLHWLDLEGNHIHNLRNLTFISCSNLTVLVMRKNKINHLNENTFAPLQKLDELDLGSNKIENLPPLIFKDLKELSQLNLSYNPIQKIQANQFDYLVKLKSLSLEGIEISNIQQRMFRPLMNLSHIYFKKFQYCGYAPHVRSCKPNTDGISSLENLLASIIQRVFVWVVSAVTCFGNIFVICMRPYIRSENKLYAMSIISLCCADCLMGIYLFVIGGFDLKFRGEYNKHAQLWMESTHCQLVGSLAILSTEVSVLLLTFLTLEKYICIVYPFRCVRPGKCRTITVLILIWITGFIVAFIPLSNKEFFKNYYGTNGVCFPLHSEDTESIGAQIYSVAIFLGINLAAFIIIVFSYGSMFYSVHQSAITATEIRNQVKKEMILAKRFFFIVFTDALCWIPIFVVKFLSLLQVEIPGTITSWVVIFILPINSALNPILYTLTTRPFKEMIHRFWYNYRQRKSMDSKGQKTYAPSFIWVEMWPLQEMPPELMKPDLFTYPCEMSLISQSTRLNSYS
Assay: cell-based or functional assay
*1 amine or outer side, *2 acyl side, *3 side chain or, on linkers, in order; H or OH if unused. Primed or numbered codes have the meaning given here. Side-chain parts run from the residue outwards. [ ]: non-standard residue; d: D form. The star is where a group is joined. γGlu = O=C(O)[C@H](CCC(=O)[*:2])N[*:1]; Stearoyl = CCCCCCCCCCCCCCCCCC(=O)*; Palmitoyl = CCCCCCCCCCCCCCCC(=O)*; αMeK = C[C@](N)(CCCCN)C(=O)O; Nle = CCCC[C@H](N)C(=O)O; PEG2′ = PEG2 spacer unit; PEG2″ = not defined here; Aib = CC(C)(N)C(=O)O
property-measured: EC50 (nM), OVCAR 5 cells (cAMP)
State just the number; it will be interpreted in nM.

Ac-LEGREKVRAK(Ac)I[Aib][Aib]EG[Nle]STWS[αMeK]RKK(Ac)[PEG2′][PEG2′][PEG2′]K([γGlu-γGlu-γGlu-γGlu-Palmitoyl])-NH2 [peptide of SEQ ID NO: 17] ... 0.17
Ac-LEGREKVRAQI[Aib][Aib]EG[Nle]STWS[Aib]RKK([PEG2″-PEG2″-γGlu-γGlu-PEG2″-γGlu-Stearoyl])-NH2 [peptide of SEQ ID NO: 100] ... 0.16

Would you kindly look at the next entry?
Challenge: Consider the binder Ac-LEGREKVRAQI[Aib][Aib]EG[Nle]STWS[Aib]RKK(Ac)K([PEG2′-PEG2′-Stearoyl])-NH2 [peptide of SEQ ID NO: 51] and give its recorded EC50 (nM), OVCAR 5 cells (cAMP).
Response given: 71.2
